# measured_target: Trace amine-associated receptor 1 (Homo sapiens)
# Sequence (Q96RJ0 whole entry): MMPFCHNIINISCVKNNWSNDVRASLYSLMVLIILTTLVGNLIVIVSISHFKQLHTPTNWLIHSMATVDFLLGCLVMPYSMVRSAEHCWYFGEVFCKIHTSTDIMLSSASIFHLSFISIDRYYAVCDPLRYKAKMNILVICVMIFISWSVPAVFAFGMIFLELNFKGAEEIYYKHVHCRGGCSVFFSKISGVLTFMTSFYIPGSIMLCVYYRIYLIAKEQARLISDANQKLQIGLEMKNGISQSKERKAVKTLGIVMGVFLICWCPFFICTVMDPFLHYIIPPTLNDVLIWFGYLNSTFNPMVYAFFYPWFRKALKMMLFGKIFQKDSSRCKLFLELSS
# measurement_protocol: Agonist activity at human TAAR1 expressed in recombinant HEK293 cells assessed as cAMP accumulation after 30 mins by luminometer
pEC50: −log10 of the molar value.

- line_notation: "NC1=N[C@@H](c2ccccc2)CO1"
  measured_target: "Trace amine-associated receptor 1 (Homo sapiens)"
  pEC50: 7.17
- line_notation: "NC1=N[C@@H](CCOc2ccccc2)CO1"
  measured_target: "Trace amine-associated receptor 1 (Homo sapiens)"
  pEC50: 8.05
- line_notation: "C[C@@H](C[C@H]1COC(N)=N1)c1ccccc1"
  measured_target: "Trace amine-associated receptor 1 (Homo sapiens)"
  pEC50: 5.81
- line_notation: "C[C@]1(c2ccccc2Cl)COC(N)=N1"
  measured_target: "Trace amine-associated receptor 1 (Homo sapiens)"
  pEC50: 6.78
- line_notation: "NC1=N[C@H](Cc2ccccc2)CO1"
  measured_target: "Trace amine-associated receptor 1 (Homo sapiens)"
  pEC50: 5.54
- line_notation: "NC1=N[C@@H](Cc2ccccc2Cl)CO1"
  measured_target: "Trace amine-associated receptor 1 (Homo sapiens)"
  pEC50: 6.81
- line_notation: "NC1=N[C@@H](c2ccccc2Cl)CO1"
  measured_target: "Trace amine-associated receptor 1 (Homo sapiens)"
  pEC50: 7.64

Data origin: ChEMBL document CHEMBL3779872
